biological target: human PAH with the R408W mutation (Homo sapiens, UniProt P00439, R408W); construct: expressed in transfected cells; assay: Cell Based Phenylalanine Flux Assay; settings: A375 R408W cells, 24 hrs with compound, then 20 μM sepiapterin and 800 μM 13C9,15N-Phenylalanine for 4 hours; 13C-Tyrosine by LC-MS; average where tested multiple times; read-out: AC50
Sequence (P00439 whole entry R408W): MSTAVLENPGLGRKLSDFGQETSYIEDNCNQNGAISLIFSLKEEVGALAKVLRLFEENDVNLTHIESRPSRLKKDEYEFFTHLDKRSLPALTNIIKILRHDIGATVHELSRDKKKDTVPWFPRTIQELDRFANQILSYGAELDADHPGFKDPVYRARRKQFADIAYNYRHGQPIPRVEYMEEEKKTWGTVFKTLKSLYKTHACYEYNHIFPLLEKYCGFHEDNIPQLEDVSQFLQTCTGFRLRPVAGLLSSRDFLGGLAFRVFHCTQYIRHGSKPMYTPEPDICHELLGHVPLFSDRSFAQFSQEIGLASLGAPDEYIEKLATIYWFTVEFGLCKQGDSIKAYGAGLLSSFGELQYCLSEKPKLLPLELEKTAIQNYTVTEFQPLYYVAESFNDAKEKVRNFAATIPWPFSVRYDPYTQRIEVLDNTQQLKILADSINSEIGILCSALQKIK
measured_endpoint: AC50

Examples with answers:
INSERT INTO assay_data (compound, measured_endpoint, result) VALUES
  ('O=C(Cc1nc(C(F)(F)F)cs1)N1CCc2[nH]cnc2C1c1cn2ccccc2n1 (stereo not drawn)', 'AC50', '> 5 µM'),
  ('O=C(c1oc(-c2ccccn2)nc1C1CC1)N1CCc2nc[nH]c2C1c1cn2ccccc2n1 (stereo not drawn)', 'AC50', '1 to 5 µM'),
  ('O=C(c1nsc2ccccc12)N1CCc2[nH]cnc2C1c1ccc2ccccc2n1 (stereo not drawn)', 'AC50', '> 5 µM'),
  ('O=C(c1nnc(-c2ccc(C(F)(F)F)cc2)o1)N1CCc2[nH]cnc2C1c1ccc2ccccc2n1 (stereo not drawn)', 'AC50', '1 to 5 µM'),
  ('O=C(c1nnc(CCN2CCOCC2)o1)N1CCc2[nH]cnc2C1c1ccc2ccccc2n1 (stereo not drawn)', 'AC50', '1 to 5 µM');

Please turn your attention to the following entry.
# AC50 of O=C(CCc1cnco1)N1CCc2[nH]cnc2C1c1cn2ccccc2n1 (stereo not drawn) = 1 to 5 µM

* * *

target: human PAH with the R408W mutation (Homo sapiens, UniProt P00439, R408W); construct: expressed in transfected cells; assay: Cell Based Phenylalanine Flux Assay; details: A375 R408W cells, 24 hrs with compound, then 20 μM sepiapterin and 800 μM 13C9,15N-Phenylalanine for 4 hours; 13C-Tyrosine by LC-MS; average where tested multiple times; read-out: AC50
Overview of reported AC50 across a group of compounds:

INSERT INTO results (compound, measured_endpoint, result) VALUES
  ('O=C(Cc1nncs1)N1CCc2[nH]cnc2C1c1cn2ccccc2n1 (stereo not shown)', 'AC50', '> 5 µM'),
  ('CC(C)(O)c1ncc(C(=O)N2CCc3[nH]cnc3[C@H]2c2cn3ccccc3n2)o1 (single isomer, unassigned)', 'AC50', '> 5 µM');

# AC50 of O=C(CCc1nnc(C(F)F)o1)N1CCc2[nH]cnc2C1c1cn2ccccc2n1 (stereo not shown) = > 5 µM

# AC50 of O=C(c1ncn2ccccc12)N1CCc2[nH]cnc2C1c1ccc2ccccc2n1 (stereo not shown) = > 5 µM

# AC50 of CN(C)Cc1ccc2c(C(=O)N3CCc4[nH]cnc4C3c3ccc4ccccc4n3)cnn2c1 (stereo not shown) = > 5 µM

# AC50 of O=C(c1cnc(C2(O)CCC2)s1)N1CCc2[nH]cnc2C1c1cn2ccccc2n1 (stereo not shown) = 1 to 5 µM

# AC50 of O=C(c1ocnc1C(F)F)N1CCc2nc[nH]c2C1c1cn2ccccc2n1 (stereo not shown) = 1 to 5 µM

# AC50 of O=C(c1nnc(CCO)o1)N1CCc2[nH]cnc2C1c1ccc2ccccc2n1 (stereo not shown) = > 5 µM

# AC50 of O=C(CCc1nccs1)N1CCc2[nH]cnc2C1c1cc2ccccc2nn1 (stereo not shown) = 1 to 5 µM

* * *

target: human PAH with the R408W mutation (Homo sapiens, UniProt P00439, R408W); construct: expressed in transfected cells; test: Cell Based Phenylalanine Flux Assay; settings: A375 R408W cells, 24 hrs with compound, then 20 μM sepiapterin and 800 μM 13C9,15N-Phenylalanine for 4 hours; 13C-Tyrosine by LC-MS; average where tested multiple times; read-out: AC50
measured_endpoint: AC50

INSERT INTO measurements (compound, result) VALUES
  ('COCCc1ccc2c(C(=O)N3CCc4[nH]cnc4C3c3ccc4ccccc4n3)cnn2c1 (stereo not shown)', '> 5 µM'),
  ('CN(C)Cc1ccc2c(C(=O)N3CCc4[nH]cnc4C3c3cn4ccccc4n3)cnn2c1 (stereo not shown)', '> 5 µM'),
  ('Cn1nc(C(F)(F)F)nc1C(=O)N1CCc2[nH]cnc2C1c1ccc2ccccc2n1 (stereo not shown)', '1 to 5 µM'),
  ('Cc1nc(C(C)(C)O)oc1C(=O)N1CCc2[nH]cnc2[C@H]1c1cc2ccccc2cn1 (single isomer, unassigned)', '1 to 5 µM'),
  ('O=C(c1oc(-c2ccccn2)nc1C(F)F)N1CCc2[nH]cnc2C1c1cc2ccccc2nn1 (stereo not shown)', '> 5 µM'),
  ('O=C(c1nnc(-c2cn[nH]c2)o1)N1CCc2[nH]cnc2C1c1ccc2ccccc2n1 (stereo not shown)', '> 5 µM'),
  ('O=C(c1nnc(N2CCOCC2)o1)N1CCc2[nH]cnc2C1c1ccc2ccccc2n1 (stereo not shown)', '1 to 5 µM'),
  ('CN1CCN(c2nnc(C(=O)N3CCc4[nH]cnc4C3c3ncc4ccccc4n3)o2)CC1 (stereo not shown)', '1 to 5 µM');

Please turn your attention to the following entry.
Result for O=C(c1nnc(C2CC2)o1)N1CCc2[nH]cnc2C1c1cn2ccccc2n1 (stereo not shown) , tested on human PAH with the R408W mutation (Homo sapiens, UniProt P00439, R408W), AC50: 1 to 5 µM

* * *

biological target: human PAH with the R408W mutation (Homo sapiens, UniProt P00439, R408W); construct: expressed in transfected cells; assay: Cell Based Phenylalanine Flux Assay; details: A375 cells expressing human R408W PAH; 24 hrs compound incubation; 13C-Tyrosine by LC-MS; average where tested multiple times; read-out: AC50
measured_endpoint: AC50

INSERT INTO results (compound, measured_endpoint, result) VALUES
  ('Cn1nc(C(F)F)cc1C(=O)N1CCc2[nH]cnc2C1c1ccc2ccccc2n1 (stereo in doubt) [Example 73]', 'AC50', '0.5 to 1 µM');

Please turn your attention to the following entry.
# AC50 of O=C(c1oc(-c2ccccn2)nc1C1CC1)N1CCc2[nH]cnc2[C@H]1c1cc2ccccc2cn1 = < 0.5 µM

* * *

target: human PAH with the R408W mutation (Homo sapiens, UniProt P00439, R408W); construct: expressed in transfected cells; assay: Cell Based Phenylalanine Flux Assay; details: A375 cells expressing human R408W PAH; 24 hrs compound incubation; 13C-Tyrosine by LC-MS; average where tested multiple times; read-out: AC50
Overview of reported AC50 across a group of compounds:

Examples with answers:
INSERT INTO results (compound, result) VALUES
  ('O=C(c1nnc(-c2ncccc2F)o1)N1CCc2[nH]cnc2C1c1ccc2ccccc2n1 (stereo in doubt) [Example 90]', '1000 to 5000 nM'),
  ('CC(C)(O)c1noc(C(=O)N2CCc3[nH]cnc3[C@H]2c2cc3ccccc3cn2)n1', '1000 to 5000 nM');

# AC50 of O=C(CCc1nnc(C(F)F)o1)N1CCc2[nH]cnc2[C@H]1c1cc2ccccc2cn1 = 1000 to 5000 nM

# AC50 of Cc1nc(C(C)(C)C#N)oc1C(=O)N1CCc2[nH]cnc2C1c1ccc2ccccc2n1 (stereo in doubt) [Example 118] = < 500 nM

* * *

target: human PAH with the R408W mutation (Homo sapiens, UniProt P00439, R408W); construct: expressed in transfected cells; experiment: Cell Based Phenylalanine Flux Assay; conditions: A375 cells expressing human R408W PAH; 24 hrs compound incubation; 13C-Tyrosine by LC-MS; average where tested multiple times; read-out: AC50
measured_endpoint: AC50

INSERT INTO assay_data (chemical_string, result) VALUES
  ('O=C(c1cnc(-c2ccccn2)s1)N1CCc2[nH]cnc2[C@@H]1c1ccc2ccccc2c1', '> 5 µM'),
  ('C[C@@H]1CN(C(=O)c2oc(C(C)(C)O)nc2C2CC2)[C@@H](c2cc3ccccc3cn2)c2nc[nH]c21', '1 to 5 µM'),
  ('O=C(c1nnc(-c2cnn(C3CCC3)c2)o1)N1CCc2[nH]cnc2[C@H]1c1ncc2ccccc2n1', '< 0.5 µM');

Please turn your attention to the following entry.
# AC50 of C[C@@H]1CN(C(=O)c2oc(C(C)(C)O)nc2C2CC2)[C@H](c2cc3ccccc3cn2)c2nc[nH]c21 = < 0.5 µM

* * *

target: human PAH with the R408W mutation (Homo sapiens, UniProt P00439, R408W); construct: expressed in transfected cells; experiment: Cell Based Phenylalanine Flux Assay; conditions: A375 cells expressing human R408W PAH; 24 hrs compound incubation; 13C-Tyrosine by LC-MS; average where tested multiple times; read-out: AC50
measured_endpoint: AC50

Examples with answers:
INSERT INTO results (compound, result) VALUES
  ('Cn1cc(-c2nnc(C(=O)N3CCc4[nH]cnc4[C@H]3c3cc4ccccc4cn3)o2)cn1 [Example 322]', '< 500 nM'),
  ('O=C(c1nnc(-c2cc(C(F)(F)F)ccn2)o1)N1CCc2[nH]cnc2C1c1ccc2ccccc2n1 (stereo in doubt) [Example 108]', '1000 to 5000 nM'),
  ('O=C(c1cnn(CC(F)(F)F)c1C(F)F)N1CCc2[nH]cnc2C1c1ccc2ccccc2n1 (stereo in doubt) [Example 126]', '> 5000 nM'),
  ('O=C(CCC1CC1)N1CCc2[nH]cnc2[C@@H]1c1cn2ccccc2n1 [Example 241]', '> 5000 nM'),
  ('O=C(c1cnco1)N1CCc2[nH]cnc2[C@@H]1c1cc2ccccc2cn1 [Example 321]', '1000 to 5000 nM');

Result for O=C(c1cnc(-c2ccccn2)o1)N1CCc2[nH]cnc2[C@H]1c1ncc2ccccc2n1 [Example 158] , tested on human PAH with the R408W mutation (Homo sapiens, UniProt P00439, R408W), AC50: 500 to 1000 nM
